- system.name: human PD-L1 / Human PD-1 (Homo sapiens (Human), UniProt Q9NZQ7)
- Sequence (Q9NZQ7 19-239): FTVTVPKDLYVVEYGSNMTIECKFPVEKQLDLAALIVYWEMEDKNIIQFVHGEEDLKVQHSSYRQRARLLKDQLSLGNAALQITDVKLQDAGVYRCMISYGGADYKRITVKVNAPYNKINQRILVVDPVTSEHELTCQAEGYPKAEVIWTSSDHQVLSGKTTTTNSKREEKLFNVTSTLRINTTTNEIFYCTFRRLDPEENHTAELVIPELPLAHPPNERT
- assay.summary: Enzyme-Linked Immunosorbent Assay (ELISA), PD-1/PD-L1 binding
- particulars: Table 3; plate-coated human PD-L1, biotinylated human PD-1; read-out: ELISA IC50
Consider the following compounds; for each one, report its IC50.

Enter reported IC50 observed with human PD-L1 / Human PD-1 (Homo sapiens (Human), UniProt Q9NZQ7) for N#Cc1cncc(COc2cc(O[C@H]3CCc4c(-c5ccccc5F)cccc43)c(Cl)cc2CN[C@@H]2CCC[C@H]2O)c1 < 0.1 µM

Enter reported IC50 observed with human PD-L1 / Human PD-1 (Homo sapiens (Human), UniProt Q9NZQ7) for N#Cc1cncc(COc2cc(O[C@H]3CCc4c(-c5ccccc5F)cccc43)c(Cl)cc2CN[C@@H](Cc2c[nH]cn2)C(=O)O)c1 0.1 to 0.5 µM

Enter reported IC50 observed with human PD-L1 / Human PD-1 (Homo sapiens (Human), UniProt Q9NZQ7) for N#Cc1cncc(COc2cc(O[C@H]3CCc4c(-c5ccccc5F)cccc43)c(Cl)cc2CN[C@@H](CC(=O)O)C(=O)O)c1 0.1 to 0.5 µM

Enter reported IC50 observed with human PD-L1 / Human PD-1 (Homo sapiens (Human), UniProt Q9NZQ7) for N#Cc1cncc(COc2cc(OC3CCc4c(-c5ccccc5F)cccc43)c(F)cc2CN[C@@H](CO)C(=O)O)c1 (stereo partly drawn) < 0.1 µM

Enter reported IC50 observed with human PD-L1 / Human PD-1 (Homo sapiens (Human), UniProt Q9NZQ7) for CCc1cc(CNCc2cc(Cl)c(O[C@H]3CCc4c(-c5ccccc5F)cccc43)cc2OCc2cncc(C#N)c2)on1 0.5 to 20 µM

Enter reported IC50 observed with human PD-L1 / Human PD-1 (Homo sapiens (Human), UniProt Q9NZQ7) for O=C(O)[C@H](CO)NCc1cc(Cl)c(O[C@H]2CCc3c(-c4ccc5c(c4F)OCCO5)cccc32)cc1OCc1cncc(Cl)c1 < 0.1 µM

----------
- system.name: human PD-L1 / Human PD-1 (Homo sapiens (Human), UniProt Q9NZQ7)
- assay.summary: Enzyme-Linked Immunosorbent Assay (ELISA), PD-1/PD-L1 binding
- particulars: Table 3; plate-coated human PD-L1, biotinylated human PD-1; read-out: ELISA IC50
Consider the following molecules; for each one, report its IC50.

Enter reported IC50 observed with human PD-L1 / Human PD-1 (Homo sapiens (Human), UniProt Q9NZQ7) for CC(N[C@@H](CO)C(=O)O)c1cc(Cl)c(O[C@H]2CCc3c(-c4cccc5c4OCCO5)cccc32)cc1OCc1cncc(C#N)c1 (stereo partly shown) 500 to 20000 nM

Enter reported IC50 observed with human PD-L1 / Human PD-1 (Homo sapiens (Human), UniProt Q9NZQ7) for COCc1ccccc1-c1cccc2c1CC[C@@H]2Oc1cc(OCc2cncc(C#N)c2)c(CN[C@@H](CO)C(=O)O)cc1Cl 500 to 20000 nM

Enter reported IC50 observed with human PD-L1 / Human PD-1 (Homo sapiens (Human), UniProt Q9NZQ7) for N#Cc1cncc(COc2cc(O[C@@H]3CCc4c(-c5ccccc5F)cccc43)c(Cl)cc2CN[C@H](CO)C(=O)O)c1 < 100 nM

Enter reported IC50 observed with human PD-L1 / Human PD-1 (Homo sapiens (Human), UniProt Q9NZQ7) for N#Cc1cncc(COc2cc(O[C@H]3CCc4c(-c5ccccc5F)cccc43)c(Cl)cc2CNC2CC(=O)NC(=O)C2)c1 500 to 20000 nM

Enter reported IC50 observed with human PD-L1 / Human PD-1 (Homo sapiens (Human), UniProt Q9NZQ7) for N#Cc1cncc(COc2cc(O[C@H]3CCc4c(-c5ccc6ccccc6c5)cccc43)c(Cl)cc2CN[C@@H](CO)C(=O)O)c1 500 to 20000 nM

Enter reported IC50 observed with human PD-L1 / Human PD-1 (Homo sapiens (Human), UniProt Q9NZQ7) for N#Cc1cncc(COc2cc(O[C@H]3CCc4c(-c5ccccc5F)cccc43)c(Cl)cc2CN[C@@H]2CCCC[C@@H]2O)c1 < 100 nM

Enter reported IC50 observed with human PD-L1 / Human PD-1 (Homo sapiens (Human), UniProt Q9NZQ7) for N#Cc1cc(Cl)cc(COc2cc(O[C@H]3CCc4c(-c5ccc6c(c5F)OCCO6)cccc43)c(Cl)cc2CN[C@@H](CO)C(=O)O)c1 < 100 nM

Enter reported IC50 observed with human PD-L1 / Human PD-1 (Homo sapiens (Human), UniProt Q9NZQ7) for C[C@@H](O)[C@@H](CC(=O)O)NCc1cc(Cl)c(O[C@@H]2CCc3c(-c4ccccc4F)cccc32)cc1OCc1cncc(C#N)c1 500 to 20000 nM

Enter reported IC50 observed with human PD-L1 / Human PD-1 (Homo sapiens (Human), UniProt Q9NZQ7) for O=C(O)c1cncc(COc2cc(O[C@H]3CCc4c(-c5ccc6c(c5F)OCCO6)cccc43)c(Cl)cc2CN[C@@H](CO)C(=O)O)c1 100 to 500 nM

Enter reported IC50 observed with human PD-L1 / Human PD-1 (Homo sapiens (Human), UniProt Q9NZQ7) for N#Cc1cncc(COc2cc(O[C@H]3CCc4c(-c5ccc6c(c5F)OCCO6)cccc43)c(Cl)cc2CN[C@H]2CCCC[C@@H]2C(=O)O)c1 100 to 500 nM

Enter reported IC50 observed with human PD-L1 / Human PD-1 (Homo sapiens (Human), UniProt Q9NZQ7) for COc1cccc(-c2cccc3c2CC[C@@H]3Oc2cc(OCc3cc(C#N)cc(C#N)c3)c(CN[C@@H](CO)C(=O)O)cc2Cl)c1Cl < 100 nM

Enter reported IC50 observed with human PD-L1 / Human PD-1 (Homo sapiens (Human), UniProt Q9NZQ7) for Cn1nccc1-c1cncc(COc2cc(O[C@H]3CCc4c(-c5ccccc5F)cccc43)c(Cl)cc2CN[C@@H](CO)C(=O)O)c1 100 to 500 nM

Enter reported IC50 observed with human PD-L1 / Human PD-1 (Homo sapiens (Human), UniProt Q9NZQ7) for N#Cc1cncc(COc2cc(O[C@H]3CCc4c(-c5ccccc5F)cccc43)c(Cl)cc2CNCc2cccnn2)c1 < 100 nM

Enter reported IC50 observed with human PD-L1 / Human PD-1 (Homo sapiens (Human), UniProt Q9NZQ7) for N#Cc1cncc(COc2cc(O[C@H]3CCc4c(-c5ccccc5F)cccc43)c(Cl)cc2CNC(CO)CO)c1 < 100 nM

Enter reported IC50 observed with human PD-L1 / Human PD-1 (Homo sapiens (Human), UniProt Q9NZQ7) for N#Cc1cc(Br)cc(COc2cc(O[C@H]3CCc4c(-c5ccccc5F)cccc43)c(Cl)cc2CN[C@@H](CO)C(=O)O)c1 < 100 nM

Enter reported IC50 observed with human PD-L1 / Human PD-1 (Homo sapiens (Human), UniProt Q9NZQ7) for CC(C)(C)OC(=O)[C@H](CO)NCc1cc(Cl)c(O[C@H]2CCc3c(-c4ccccc4F)cccc32)cc1OCc1cncc(C#N)c1 500 to 20000 nM

Enter reported IC50 observed with human PD-L1 / Human PD-1 (Homo sapiens (Human), UniProt Q9NZQ7) for N#Cc1cncc(COc2cc(O[C@H]3CCc4c(-c5ccccc5F)cccc43)c(Cl)cc2CN[C@H](CNC(=N)N)C(=O)O)c1 < 100 nM

Enter reported IC50 observed with human PD-L1 / Human PD-1 (Homo sapiens (Human), UniProt Q9NZQ7) for N#Cc1cncc(COc2cc(O[C@H]3CCc4c(-c5ccccc5F)cccc43)c(Cl)cc2CN[C@H]2CC[C@H](O)CC2)c1 < 100 nM

Enter reported IC50 observed with human PD-L1 / Human PD-1 (Homo sapiens (Human), UniProt Q9NZQ7) for CC(N[C@@H](CO)C(=O)O)c1cc(Cl)c(O[C@H]2CCc3c(C4=CCCC4)cccc32)cc1OCc1cncc(C#N)c1 (stereo partly shown) 100 to 500 nM

Enter reported IC50 observed with human PD-L1 / Human PD-1 (Homo sapiens (Human), UniProt Q9NZQ7) for N#Cc1cncc(COc2cc(O[C@H]3CCc4c(-c5ccccc5F)cccc43)c(Cl)cc2CNCC(=O)N[C@@H](CO)C(=O)O)c1 100 to 500 nM

Enter reported IC50 observed with human PD-L1 / Human PD-1 (Homo sapiens (Human), UniProt Q9NZQ7) for N#Cc1cncc(COc2cc(O[C@H]3CCc4c(-c5ccccc5F)cccc43)c(Cl)cc2CNCC(=O)NCC(=O)O)c1 < 100 nM

Enter reported IC50 observed with human PD-L1 / Human PD-1 (Homo sapiens (Human), UniProt Q9NZQ7) for N#Cc1cncc(COc2cc(O[C@H]3CCc4c(-c5ccc6c(c5F)OCCO6)cccc43)c(Cl)cc2CNC(CO)(CO)CO)c1 < 100 nM

Enter reported IC50 observed with human PD-L1 / Human PD-1 (Homo sapiens (Human), UniProt Q9NZQ7) for CC(NCc1cc(Cl)c(O[C@H]2CCc3c(-c4ccccc4F)cccc32)cc1OCc1cncc(C#N)c1)c1ccn(C)n1 (stereo partly shown) 100 to 500 nM

Enter reported IC50 observed with human PD-L1 / Human PD-1 (Homo sapiens (Human), UniProt Q9NZQ7) for CC(Cc1ccccn1)NCc1cc(Cl)c(O[C@H]2CCc3c(-c4ccccc4F)cccc32)cc1OCc1cncc(C#N)c1 (stereo partly shown) 100 to 500 nM

Enter reported IC50 observed with human PD-L1 / Human PD-1 (Homo sapiens (Human), UniProt Q9NZQ7) for N#Cc1cncc(COc2cc(O[C@H]3CCc4c(-c5ccccc5F)cccc43)c(Cl)cc2CN2C[C@H](O)[C@@H](O)[C@H](O)[C@H]2CO)c1 500 to 20000 nM
